Molecular target: FGFR3 (UniProt P22607)
Sequence (P22607 whole entry, looked up): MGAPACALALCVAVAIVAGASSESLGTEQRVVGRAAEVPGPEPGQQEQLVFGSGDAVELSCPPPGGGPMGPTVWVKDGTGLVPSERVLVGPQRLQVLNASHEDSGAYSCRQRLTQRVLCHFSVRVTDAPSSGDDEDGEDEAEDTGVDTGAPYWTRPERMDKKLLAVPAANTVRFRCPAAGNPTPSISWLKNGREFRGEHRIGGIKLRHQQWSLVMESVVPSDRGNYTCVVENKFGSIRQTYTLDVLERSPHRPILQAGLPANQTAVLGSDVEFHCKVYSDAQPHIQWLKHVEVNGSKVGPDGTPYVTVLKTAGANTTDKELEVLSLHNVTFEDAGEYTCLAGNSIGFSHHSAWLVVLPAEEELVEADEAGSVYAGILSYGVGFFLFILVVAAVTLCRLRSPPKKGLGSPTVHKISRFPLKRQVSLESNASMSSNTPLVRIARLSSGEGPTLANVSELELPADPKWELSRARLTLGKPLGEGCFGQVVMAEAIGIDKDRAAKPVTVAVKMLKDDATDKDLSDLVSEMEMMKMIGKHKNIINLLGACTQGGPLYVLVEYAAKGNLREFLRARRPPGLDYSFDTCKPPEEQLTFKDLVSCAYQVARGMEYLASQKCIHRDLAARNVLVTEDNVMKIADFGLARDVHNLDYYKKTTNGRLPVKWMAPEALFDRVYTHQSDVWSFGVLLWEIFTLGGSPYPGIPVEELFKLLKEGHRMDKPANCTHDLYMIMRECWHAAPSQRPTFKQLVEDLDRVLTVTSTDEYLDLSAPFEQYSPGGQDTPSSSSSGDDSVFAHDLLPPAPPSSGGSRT
Experiment: phosphorylation enrichment, bacterial display (enrichment ratio); higher = better substrate or ligand; peptides without Tyr show the background
Metric Name: phosphorylation enrichment

>>> print(df.to_string())
                      sequence_code   target_or_test_system  recorded_number
0   WSQAMYPDLGP [STARD8_Y330_R327Q]  FGFR3 (UniProt P22607)            0.583
1    EWLRRYLKNGK [HLA-C_Y195_E197K]  FGFR3 (UniProt P22607)            0.516
2       KMGNIYRTEFG [MRPL3_Y265_YF]  FGFR3 (UniProt P22607)            0.514
3  HHTDECEFDEL [TGM1_Y134_Y134C_YF]  FGFR3 (UniProt P22607)            0.545
4      LLSVAYQNVVG [YWHAG_Y49_K50Q]  FGFR3 (UniProt P22607)             1.08
5    ARLEFCENEKK [IRS1_Y47_Y47C_YF]  FGFR3 (UniProt P22607)            0.926
6     ESVNTYLQTSP [NAT1_Y208_M205V]  FGFR3 (UniProt P22607)            0.577
7           MGRVNYGAYIN [GLB1_Y485]  FGFR3 (UniProt P22607)            0.499
8  ISDNACQFMLT [MYH7_Y162_Y162C_YF]  FGFR3 (UniProt P22607)            0.877
9          RQNQEYEILLD [KRT39_Y379]  FGFR3 (UniProt P22607)            0.678

----------
Molecular target: FGFR3 (UniProt P22607)
Assay: phosphorylation enrichment, bacterial display (enrichment ratio); higher = better substrate or ligand; peptides without Tyr show the background
Give fulfilled when the value for phosphorylation enrichment is at least 0.8. Give not fulfilled when it is less.

                        sequence_code   target_or_test_system    group_label
 0       RRIHSYRGYLW [VHL_Y112_H115Y]  FGFR3 (UniProt P22607)      fulfilled
 1           DVVKDYAFVHM [RBM14_Y114]  FGFR3 (UniProt P22607)      fulfilled
 2          RHTRSYDFMEG [FGF7_Y56_YF]  FGFR3 (UniProt P22607)  not fulfilled
 3       VMAVAYRLAEQ [HK1_Y461_T457M]  FGFR3 (UniProt P22607)  not fulfilled
 4          RTCSSYAIEKI [PARP15_Y520]  FGFR3 (UniProt P22607)  not fulfilled
 5     NARGLYYKLHN [GATA2_Y376_C373R]  FGFR3 (UniProt P22607)      fulfilled
 6  EFFENYIEELK [PARP4_Y218_F215Y_YF]  FGFR3 (UniProt P22607)  not fulfilled
 7     LKDEDYLKDTV [HAUS3_Y582_I586T]  FGFR3 (UniProt P22607)      fulfilled
 8       RGNKEYKEEKR [LENG1_Y96_E97K]  FGFR3 (UniProt P22607)  not fulfilled
 9        DAICFYRMENA [NPHS2_Y195_YF]  FGFR3 (UniProt P22607)      fulfilled
10  RSAGKYDVFFI [MECP2_Y120_L124F_YF]  FGFR3 (UniProt P22607)      fulfilled

----------
Items are presented alongside their recorded phosphorylation enrichment.
Test system: Fer (mouse)
Test: phosphorylation enrichment, bacterial display (enrichment ratio); higher = better substrate or ligand; peptides without Tyr show the background
Metric Name: phosphorylation enrichment

                       sequence_code  result
 0   RCNHPYLINGA [CHD7_Y1256_C1251R]   0.505
 1   CDYKKYGKGLR [ZNF445_Y433_Y428C]   0.318
 2       RLLVVYPWTQG [HBG2_Y36_R41G]   0.289
 3   EQMLEYMGQLQ [CFAP45_Y289_E291G]   0.427
 4          VICRRYLVMQR [IL3RA_Y328]    0.46
 5    FTYDPYSEEEP [IL2RB_Y387_D391E]   0.601
 6           EILLSYLRTGY [TGM1_Y365]   0.548
 7     SVVVPYEPAEV [TP53_Y220_P223A]   0.596
 8    ARLEFCENEKK [IRS1_Y47_Y47C_YF]   0.568
 9   KRNSLYSFSDH [CCDC82_Y331_Q327R]   0.829
10          IKELTYQTEED [MYH7_Y1852]   0.635
11      ALAHEYHGGGG [HBB_Y146_K145E]   0.354
12     SSVPDYLAAVD [GLB1_Y154_D151V]   0.568
13     VQQVIYATRAL [MYH7_Y422_G425R]    0.57
14   RSPLRYISILT [OR51B6_Y130_T131I]   0.606
15  LEAVSYSSPFA [RNLS_Y190_R193P_YF]   0.396

----------
System: c-Abl (mouse)
Assay: phosphorylation enrichment, bacterial display (enrichment ratio); higher = better substrate or ligand; peptides without Tyr show the background
Metric Name: phosphorylation enrichment

In [3]: df
Out[3]:
                    sequence_code  recorded_number
0        AEPHTYEEPGR [EPHA8_Y616]            0.675
1       PSAEGYQDVRD [ABLIM1_Y439]            0.688
2  PYAEPYADYGG [APBA1_Y187_S184A]             1.82
3   ERSMSYCDESR [SMG1_Y143_S144C]            0.704
4        ISITPYPAILH [IFT80_Y588]            0.865

----------
Target: FGFR1 (UniProt P11362)
Sequence (P11362 whole entry, looked up): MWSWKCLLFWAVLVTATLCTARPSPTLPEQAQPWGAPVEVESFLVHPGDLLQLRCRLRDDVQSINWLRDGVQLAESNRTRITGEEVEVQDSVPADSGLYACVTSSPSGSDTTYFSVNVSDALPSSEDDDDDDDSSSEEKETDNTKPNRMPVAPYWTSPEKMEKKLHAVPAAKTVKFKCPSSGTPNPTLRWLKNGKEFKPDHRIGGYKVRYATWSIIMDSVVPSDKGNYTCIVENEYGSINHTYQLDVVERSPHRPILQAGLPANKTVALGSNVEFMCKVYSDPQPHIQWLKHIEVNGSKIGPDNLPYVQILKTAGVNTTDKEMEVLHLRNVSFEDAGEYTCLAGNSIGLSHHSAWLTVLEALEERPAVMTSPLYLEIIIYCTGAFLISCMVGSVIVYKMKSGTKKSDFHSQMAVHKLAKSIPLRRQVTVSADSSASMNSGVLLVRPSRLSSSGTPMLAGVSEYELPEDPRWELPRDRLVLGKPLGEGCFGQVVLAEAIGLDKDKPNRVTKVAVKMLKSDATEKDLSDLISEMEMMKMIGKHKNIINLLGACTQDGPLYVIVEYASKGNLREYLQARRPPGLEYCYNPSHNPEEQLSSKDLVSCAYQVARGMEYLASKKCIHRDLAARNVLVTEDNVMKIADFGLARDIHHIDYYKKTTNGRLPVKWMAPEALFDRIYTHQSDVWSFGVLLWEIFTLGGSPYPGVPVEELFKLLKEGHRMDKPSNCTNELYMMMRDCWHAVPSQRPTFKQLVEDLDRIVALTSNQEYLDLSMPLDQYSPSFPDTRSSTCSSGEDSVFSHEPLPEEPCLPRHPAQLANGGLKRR
Assay: phosphorylation enrichment, bacterial display (enrichment ratio); higher = better substrate or ligand; peptides without Tyr show the background
Metric Name: phosphorylation enrichment

In [3]: df
Out[3]:
                       sequence_code  recorded_number
0      SLEKSYELLDG [ACTB_Y240_P243L]            0.508
1      AHARMYGVLPW [PLP1_Y207_D203H]            0.503
2     WDLPEYSYKDP [ITGA3_Y237_S235P]            0.688
3  PFAEPYADFGG [APBA1_Y187_S184A_YF]             0.68
4         QGIIIYRAAYF [SLC25A4_Y187]            0.688
5        EEGRVYVFRLS [ITGAE_Y549_YF]            0.508
6      KNSFKYYMSDD [ATRX_Y203_C200S]            0.486
7            TTKGAYSLSIR [YES1_Y194]             0.49
8           GQLIFYAPPEW [CNTN6_Y315]            0.513
9   EFGFRYELVQY [UGGT2_Y1289_Y1285F]            0.512

----------
Target: Grb2 SH2 (UniProt P62993)
Sequence (P62993 whole entry, looked up): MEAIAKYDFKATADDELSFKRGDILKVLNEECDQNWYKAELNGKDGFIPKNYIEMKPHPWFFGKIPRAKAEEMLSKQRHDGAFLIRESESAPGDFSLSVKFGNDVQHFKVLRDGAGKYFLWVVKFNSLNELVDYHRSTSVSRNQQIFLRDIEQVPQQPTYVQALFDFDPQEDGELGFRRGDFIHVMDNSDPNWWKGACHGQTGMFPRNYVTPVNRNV
Test: SH2 binding enrichment of the phosphorylated peptide, bacterial display (enrichment ratio); higher = better substrate or ligand; peptides without Tyr show the background
Items are presented alongside their recorded SH2 binding enrichment.
Metric Name: SH2 binding enrichment

                         sequence_code  recorded_number
 0  HSKGIYFVQLE [MGAT4B_Y262_Q257H_YF]             1.53
 1      SQQTYYPVSNM [ABCD1_Y181_R182P]            0.864
 2     LDPIQYSKHPP [SQSTM1_Y433_T430P]            0.885
 3          VHSGTYQVTVR [MYBPC3_Y1043]            0.725
 4           PSAEGYQDVRD [ABLIM1_Y439]            0.812
 5  SKAFAYVHFDS [PABPC5_Y149_G146A_YF]            0.942
 6            ITVCDYTNPCT [MYD88_Y276]            0.968
 7           LLNPRYNLPLD [TOM1L1_Y109]            0.856
 8     CDYKKYGKGLR [ZNF445_Y433_Y428C]            0.882
 9       AGTILSHAHLD [ASS1_Y291_Y291S]            0.696
10       IRDENYGEGSS [ACO2_Y665_G661R]            0.685
11       KNSFKYYMSDD [ATRX_Y203_C200S]            0.848
12      CVRTIYTIDGS [DCLK2_Y124_G119C]            0.702
13    NGSFLYVIISQ [LRP1B_Y1988_R1987L]             0.68
14       IPPRRYFCSGV [STAMBP_Y36_R38C]            0.691
15           KCCCIYEKPRA [PPP1R11_Y64]            0.879
16    PQGVGYPPQPQ [EP300_Y2219_Q2223P]            0.998
17        IVAREYFSEAD [CAMK2A_Y106_YF]              0.9
18      INITIYGKTFC [EFHC1_Y177_R182C]            0.881
19         TESALYGCTVL [KIAA1804_Y724]             0.82
20            QMRLKYSQSDL [SMC1A_Y714]            0.871
21             GAEIVYKSPVV [MAPT_Y711]            0.758
